Test system: VchCAST RNA-guided transposition machinery (E. coli BL21(DE3) host, lacZ target)
test-summary: relative integration efficiency (T-LR orientation) vs wild-type transposon end (log2 (normalized fold change)); transposon end mutated: right end (5 bp flank + 75 bp right end); higher = more efficient transposition
Please assign a class to every record based on measured relative integration efficiency (log2), with ranges band 1 (below -0.4), band 2 (-0.4 to below 0.1), band 3 (0.1 or more)

q: Input ACATTTGTTGATACAACCATAAGTTGATATTTTCACCCATAAATTGATAATTATCACACCCATAAATTGATATTGCCTCTGATCATAGTCAGACCAACATTGCTACGACCCGTATTCGCACCGACAC ; output its category
a: band 2

q: Input ACATTTGTTGATACAACCATAAAATGATAATTAACAAACGCCCGGTCGCCGGCGACACAAACGCCCGGTCGCGGTAAGAGGATCATAGTCAGACCAACATTGCTACGACCCGTATTCGCACCGACAC ; output its category
a: band 3

q: Input ACATTTGTTGATACACCCATAAATTGATATTGCCAACCATATATTGATATCTCTCACAACCATAAAGTGATATTTACTCTGATCATAGTCAGACCAACATTGCTACGACCCGTATTCGCACCGACAC ; output its category
a: band 2

q: Input ACATTTGTGTCGACAACCATAAAATGATAATTACACCCATAAATTGATAATTATCACACCCATAAATTGATATTGCCTCTGATCATAGTCAGACCAACATTGCTACGACCCGTATTCGCACCGACAC ; output its category
a: band 1

q: Input ACATTTGTTGATACAACCATAAAATGTTAATTACACCCATAAATTGTTAATTATCACACCCATAAATTGTTATTGCCTCTGATCATAGTCAGACCAACATTGCTACGACCCGTATTCGCACCGACAC ; output its category
a: band 1

q: Input ACATTTGTTGATACCACCATAAAATGATAATTACACCCCTAAATTGATAATTATCACACCCAATTTAACTATAACGCTCTGATCATAGTCAGACCAACATTGCTACGACCCGTATTCGCACCGACAC ; output its category
a: band 3

q: Input ACAGGTGTTGATACAACCATAAAATGATAATTACACCCATAAATTGATAATTATCACACCCATAAATTGATATTGCCTCTGATCATAGTCAGACCAACATTGCTACGACCCGTATTCGCACCGACAC ; output its category
a: band 2

q: Input ACATTTGTTGATACAACCATAAAATGGTAATTACACCCCTAAATTGATAATTATCACACCCAATTTAACTATAACGCTCTGATCATAGTCAGACCAACATTGCTACGACCCGTATTCGCACCGACAC ; output its category
a: band 3

q: Input ACATTTGTTGATACACCCATAAATTGATAATTACAACCATAAAGTGATATTTATCACAACCATAAAATGATAATTACTCTGATCATAGTCAGACCAACATTGCTACGACCCGTATTCGCACCGACAC ; output its category
a: band 1

q: Input ACATTTGTTGATACAACCATTAAATGATAATTCCACCAATAAATTGATAATTATCACACCCAATTTAACTATAACGCTCTGATCATAGTCAGACCAACATTGCTACGACCCGTATTCGCACCGACAC ; output its category
a: band 3

q: Input ACATTTGTTGATACAACCATAAAATGATAATTACACCCATAAATTGATAATTATCACACCCATAAATTGATATTGCCTCTGTACGATCCAGTGATCTCCAAGACGCTGCAAGAGTCCGCACCGACAC ; output its category
a: band 2

q: Input ACATTTGTTGATACAAGCATAAAATGATAATTACACGCATAAATTGATAATTATCACACGCATAAATTGATATTGCCTCTGATCATAGTCAGACCAACATTGCTACGACCCGTATTCGCACCGACAC ; output its category
a: band 2
